# Tested on: TNF-α release from hPBMCs
# test description: Assay for inhibition of TNF-α release from hPBMCs (IFNγ/LPS stimulated)
# Assay type: cell-based
# experimental conditions: Homo sapiens, IFNγ (10 ng/ml) and LPS (5 μg/ml), 3 h
pIC50: −log10 of the molar value. Structures can show the parent of a compound that is named as a salt.
measured metric: pIC50

{"compound": "COc1ccc(-c2cc3c(cn2)CCc2c-3[nH]c3c2C(=O)NC2(CC2)C3)cc1 [Example 40]", "pIC50": 6.66}
{"compound": "O=C1NCC2(CNC2)c2[nH]c3c(c21)CCc1cnc(-c2cccc(Cl)c2)cc1-3 [Example 187, hydrochloride]", "pIC50": 6.81}
{"compound": "COCCOc1cncc(-c2cc3c(cn2)CCc2c-3[nH]c3c2C(=O)NCC32CC2)c1 [Example 1]", "pIC50": 6.49}

I = Cc1ccc(-c2cc3c(cn2)CCc2c-3[nH]c3c2C(=O)NC2(CCC2)C3)cn1 [Example 103]
II = CC(C)Oc1ccc(-c2cc3c(cn2)CCc2c-3[nH]c3c2C(=O)NCC32CN(C)C2)cn1 [Example 185, hydrochloride]
When the recorded pIC50 values are compared, which is smaller: that of I or that of II ? Identify your pick by its label. I
(I: 6.47, II: 6.87)

// data source = patent US7838674B2
